Molecular target: H1047R PIK3CA enzyme (Homo sapiens, UniProt P42336, H1047R)
Sequence (P42336 whole entry H1047R): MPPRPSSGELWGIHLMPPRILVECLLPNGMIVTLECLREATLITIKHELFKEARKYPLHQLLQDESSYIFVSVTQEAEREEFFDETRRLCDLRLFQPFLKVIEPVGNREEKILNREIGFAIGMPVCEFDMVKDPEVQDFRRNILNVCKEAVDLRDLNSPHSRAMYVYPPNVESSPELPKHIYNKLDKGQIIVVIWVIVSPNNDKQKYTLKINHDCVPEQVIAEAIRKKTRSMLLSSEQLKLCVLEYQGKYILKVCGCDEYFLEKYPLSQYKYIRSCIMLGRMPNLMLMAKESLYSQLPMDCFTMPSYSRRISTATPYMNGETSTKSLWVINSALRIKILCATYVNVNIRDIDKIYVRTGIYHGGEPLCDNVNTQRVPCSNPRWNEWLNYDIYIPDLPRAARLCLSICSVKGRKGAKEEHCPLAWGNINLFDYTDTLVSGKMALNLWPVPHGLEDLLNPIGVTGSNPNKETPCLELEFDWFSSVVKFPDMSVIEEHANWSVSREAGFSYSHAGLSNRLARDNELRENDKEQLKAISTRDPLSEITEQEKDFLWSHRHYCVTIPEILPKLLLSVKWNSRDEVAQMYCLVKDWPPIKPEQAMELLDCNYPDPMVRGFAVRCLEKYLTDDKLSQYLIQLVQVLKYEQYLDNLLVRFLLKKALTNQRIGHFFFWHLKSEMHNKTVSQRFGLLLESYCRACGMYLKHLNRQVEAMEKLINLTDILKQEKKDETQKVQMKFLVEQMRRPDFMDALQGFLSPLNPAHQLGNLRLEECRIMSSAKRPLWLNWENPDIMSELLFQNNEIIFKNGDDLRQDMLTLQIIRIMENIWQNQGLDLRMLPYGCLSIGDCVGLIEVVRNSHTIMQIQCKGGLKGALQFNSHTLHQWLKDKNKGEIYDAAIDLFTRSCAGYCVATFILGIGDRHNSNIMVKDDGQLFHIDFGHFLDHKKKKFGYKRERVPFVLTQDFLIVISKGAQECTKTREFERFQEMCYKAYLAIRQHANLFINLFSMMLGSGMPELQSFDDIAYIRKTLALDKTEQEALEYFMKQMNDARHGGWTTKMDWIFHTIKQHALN
Sequence (P27986 whole entry partner): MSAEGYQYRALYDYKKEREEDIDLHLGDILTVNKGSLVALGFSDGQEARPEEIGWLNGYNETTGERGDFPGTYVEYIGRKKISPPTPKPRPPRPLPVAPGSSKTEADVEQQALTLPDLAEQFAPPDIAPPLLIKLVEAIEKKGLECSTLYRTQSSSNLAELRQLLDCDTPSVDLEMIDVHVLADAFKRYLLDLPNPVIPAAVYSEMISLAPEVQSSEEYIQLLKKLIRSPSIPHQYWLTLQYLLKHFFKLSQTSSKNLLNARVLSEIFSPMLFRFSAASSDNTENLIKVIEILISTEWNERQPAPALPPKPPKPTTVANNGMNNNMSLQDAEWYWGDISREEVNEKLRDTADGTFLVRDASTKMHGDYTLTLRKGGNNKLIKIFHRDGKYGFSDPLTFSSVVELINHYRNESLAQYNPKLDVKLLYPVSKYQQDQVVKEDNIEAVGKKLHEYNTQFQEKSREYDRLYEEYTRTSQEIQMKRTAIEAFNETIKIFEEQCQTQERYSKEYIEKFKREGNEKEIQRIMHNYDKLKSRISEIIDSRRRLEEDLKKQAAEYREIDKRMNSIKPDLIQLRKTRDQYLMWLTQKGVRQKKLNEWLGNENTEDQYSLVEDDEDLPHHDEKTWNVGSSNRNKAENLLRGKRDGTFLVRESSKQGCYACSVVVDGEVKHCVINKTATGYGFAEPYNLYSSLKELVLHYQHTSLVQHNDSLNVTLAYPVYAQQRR
Assay: ADP-Glo Biochemical PIK3CA Kinase Assay
endpoint-name: IC50

# compound, endpoint-name, test-result
rows = [
    ("CNC(=O)c1cnc(Nc2ccccc2C)c(NC(=O)c2csc(C)n2)c1", "IC50", "10 to 100 µM"),
]

For each of the compounds below, note its IC50.
1. CNC(=O)c1cnc(Nc2ccccc2C)c(NC(=O)Cc2cc(C)cc(F)c2)c1
2. CCOc1ccccc1Nc1ncc(C(=O)NC)cc1NC(=O)c1cc(F)cc(C(F)(F)F)c1
3. Cc1ccccc1Nc1ncc(C(=O)N[C@H]2CCN(C)C2)cc1NC(=O)c1cc(F)cc(C(F)(F)F)c1 (stereo in doubt)
4. CNC(=O)c1cnc(Nc2ccccc2C)c(NC(=O)C2CCN(C(C)=O)CC2)c1

10 to 100 µM
10 to 100 µM
0.5 to 1 µM
10 to 100 µM

----------
Target: H1047R PIK3CA enzyme (Homo sapiens, UniProt P42336, H1047R)
Experiment: ADP-Glo Biochemical PIK3CA Kinase Assay
pIC50: −log10 of the molar value.
I'd be grateful if you could share measured pIC50 for these entries.

Consider the following illustrative entries.
# compound, pIC50
rows = [
    ("CNC(=O)c1cnc(N2c3ccccc3CCC2C)c(NC(=O)c2csc3ccccc23)c1 (stereo not drawn)", "4.00 to 5.00"),
    ("Cc1ccccc1Nc1ncc(C(=O)NC2CCCS(=O)(=O)C2)cc1NC(=O)c1cc(F)cc(C(F)(F)F)c1 (stereo not drawn)", "6.30 to 7.00"),
    ("Cc1ccccc1[C@@H]1Nc2ccccc2[C@H]1CNC(=O)c1cc(F)cc(C(F)(F)F)c1 (racemic)", "4.00 to 5.00"),
]

For each of the compounds below, note its pIC50.
1. O=C(NC1(c2cccnc2)CC1)c1cnc(N2CCOc3ccccc32)c(NC(=O)c2csc3ccccc23)c1
2. Cc1ccccc1Nc1ncc(C(=O)NC2CC(O)C2)cc1NC(=O)c1cc(F)cc(C(F)(F)F)c1 (stereo not drawn)
3. CNC(=O)c1cnc(Nc2ccccc2C)c(NC(=O)c2nccc3ccccc23)c1
4. Cc1ccccc1Nc1ncc(-c2cnn(C)c2)cc1Nc1ncnn2cccc12
5. Cc1ccccc1Nc1ncc(-c2cnn(C)c2)cc1NC(=O)c1cccc2nn(C)cc12
6. CNC(=O)c1cnc(Nc2ccccc2C)c(NC(=O)c2csc3ccccc23)c1

6.30 to 7.00
6.30 to 7.00
4.00 to 5.00
4.00 to 5.00
4.00 to 5.00
6.30 to 7.00

For each of the compounds below, note its pIC50.
1. CNC(=O)c1cnc(Nc2cccc(F)c2C)c(NC(=O)c2cc(F)cc(C(F)(F)F)c2)c1
2. Cc1ccccc1Nc1ncc(C(=O)N2CCOCC2)cc1NC(=O)c1cc(F)cc(C(F)(F)F)c1
3. O=C(Nc1cc(-c2ccc3ncnn3c2)cnc1NC(CO)CCO)c1cc(F)cc(C(F)(F)F)c1 (stereo not drawn)
4. O=C(Nc1cccnc1NC1CCCCC1)c1csc2ccccc12
5. CNC(=O)c1cnc(Nc2cccc(C(F)(F)F)c2)c(NC(=O)c2cc(F)cc(C(F)(F)F)c2)c1

1. 6.00 to 6.30
2. 4.00 to 5.00
3. 4.00 to 5.00
4. 4.00 to 5.00
5. 5.00 to 6.00

For each of the compounds below, note its pIC50.
1. CNC(=O)c1cnc(Nc2nc(C)cs2)c(NC(=O)c2cc(F)cc(C(F)(F)F)c2)c1
2. Cc1ccccc1Nc1cc(=O)n(Cc2ccccc2C#N)cc1NC(=O)c1csc2ccccc12
3. Cc1ccccc1Nc1ncc(CO)cc1NC(=O)c1cc(F)cc(C(F)(F)F)c1
4. Cc1ccccc1Nc1ncc(-c2cnn(C)c2)cc1NC(=O)c1cccc(Br)c1
5. Cc1ccccc1Nc1ncc(C(=O)NC2CC3(COC3)C2)cc1NC(=O)c1cc(F)cc(C(F)(F)F)c1

["5.00 to 6.00", "6.30 to 7.00", "5.00 to 6.00", "5.00 to 6.00", "6.30 to 7.00"]

For each of the compounds below, note its pIC50.
1. CNC(=O)c1cnc(Nc2ccccc2C)c(NC(=O)C(c2ccccc2)C(C)C)c1 (stereo not drawn)
2. CNC(=O)c1cnc(Nc2ccccc2C)c(NC(=O)Cc2cc(F)cc(F)c2)c1
3. CNC(=O)c1cnc(Nc2ccccc2C)c(NC(=O)c2csc3cc(OC)ccc23)c1
4. Cc1ccccc1Nc1ncc(C(=O)NCc2ccc(Cl)cc2)cc1NC(=O)c1csc2ccccc12
5. CNC(=O)c1cnc(Nc2ccccc2C)c(NC(=O)c2ccccc2)c1
6. Cc1ccccc1Nc1ncc(-c2cnn(C)c2)cc1NC(=O)c1ccnc2c1ccn2C

["4.00 to 5.00", "4.00 to 5.00", "4.00 to 5.00", "6.30 to 7.00", "4.00 to 5.00", "4.00 to 5.00"]

----------
Biological target: H1047R PIK3CA enzyme (Homo sapiens, UniProt P42336, H1047R)
Assay: ADP-Glo Biochemical PIK3CA Kinase Assay
Details: ADP-Glo biochemical PIK3CA kinase assay
pIC50: −log10 of the molar value.
endpoint-name: pIC50

# compound, test-result
records = [
    ("CNC(=O)c1cnc(Nc2ccccc2C)c(NC(=O)Cc2cc3cccnc3cc2F)c1", "5.00 to 6.00"),
    ("Cc1ccccc1Nc1ncc(C(=O)N2CCn3nccc32)cc1NC(=O)c1csc2ccccc12", "5.00 to 6.00"),
    ("Nc1ncc(C(=O)N[C@H]2C[C@@H](C(N)=O)C2)cc1NC(=O)c1csc2ccccc12", "5.00 to 6.00"),
    ("Nc1cc(-c2ccc(F)cc2)nn1-c1nc2ccccc2[nH]1", "5.00 to 6.00"),
    ("CNC(=O)c1cnc(Nc2ccccc2C)c(NC(=O)c2coc3c(F)cc(Cl)cc23)c1", "6.00 to 6.30"),
    ("CNC(=O)c1cnc(Nc2ccccc2C)c(NC(=O)c2cc(C)nn2C(F)F)c1", "4.00 to 5.00"),
]

For each of the compounds below, note its pIC50.
1. CNC(=O)c1cnc(Nc2ccccc2C)c(NC(=O)NC23C[C@H]4C[C@@H](C2)C[C@@H](C3)C4)c1
2. Cc1ccccc1Nc1ncc(C(=O)N[C@H]2CCCOC2)cc1NC(=O)c1csc2ccccc12
3. Cc1ccccc1Nc1ncc(C(=O)NC2CCOc3ccccc32)cc1NC(=O)c1csc2ccccc12 (stereo not shown)
4. Cc1ccccc1Nc1cccnc1NC(=O)c1csc2ccccc12
5. Cc1ccccc1Nc1ncc(C(=O)NCc2cocn2)cc1NC(=O)c1csc2ccccc12

1. 5.00 to 6.00
2. 6.30 to 7.00
3. 4.00 to 5.00
4. 6.30 to 7.00
5. 6.30 to 7.00

For each of the compounds below, note its pIC50.
1. CNC(=O)c1cnc(Nc2ccccc2C)c(NC(=O)c2csc3c2CCOC3)c1
2. Cc1ccccc1Nc1ncc(C(=O)NCc2cnccc2C(F)(F)F)cc1NC(=O)c1csc2ccccc12

1: 5.00 to 6.00; 2: ≥ 7.00

----------
I'd be grateful if you could share measured pIC50 for these entries.
Biological target: H1047R PIK3CA enzyme (Homo sapiens, UniProt P42336, H1047R)
Experiment: ADP-Glo Biochemical PIK3CA Kinase Assay
pIC50: −log10 of the molar value.

Consider the following illustrative entries.
# molecule, endpoint-name, test-result
data = [
    ("Cc1ccccc1Nc1ncc(C2=CCNCC2)cc1NC(=O)c1cc(F)cc(C(F)(F)F)c1", "pIC50", "4.00 to 5.00"),
    ("COc1cncc(CNC(=O)c2cnc(Nc3ccccc3C)c(NC(=O)c3csc4ccccc34)c2)c1", "pIC50", "6.30 to 7.00"),
]

For each of the molecules below, note its pIC50.
1. Cc1cc(F)cc(C(=O)Nc2cc(-c3cnn(C)c3)cnc2Nc2ccccc2C)c1
2. Cc1ccccc1Nc1ncc(C(=O)O)cc1NC(=O)c1cc(F)cc(C(F)(F)F)c1
3. Cc1ccc(C(=O)Nc2cc(-c3cnn(C)c3)cnc2Nc2ccccc2C)cc1
4. Cc1ccc(Nc2ncc(C(=O)NCc3cnn(C)c3)cc2NC(=O)c2csc3ccccc23)cc1

1: 5.00 to 6.00; 2: 5.00 to 6.00; 3: 4.00 to 5.00; 4: 4.00 to 5.00

For each of the molecules below, note its pIC50.
1. CCn1cccc(C(=O)Nc2cc(C(=O)NC)cnc2Nc2ccccc2C)c1=O
2. Cc1ccccc1Nc1ncc(-c2cnn(C)c2)cc1NC(=O)c1cccc(C(F)(F)F)c1
3. Cc1ccccc1Nc1ncc(-c2cnn(C)c2)cc1NC(=O)c1cccc2cnccc12
4. Cc1ccccc1Nc1ncc(-c2cnn(C)c2)cc1NC(=O)N1CCOc2ccccc21

["4.00 to 5.00", "5.00 to 6.00", "4.00 to 5.00", "4.00 to 5.00"]
